Target: T1, P4mSN
T1 chain: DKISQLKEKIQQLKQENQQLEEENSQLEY
Assay: two-hybrid library CCNG1;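 also: natural log of median RNA to DNA barcode read ratio; higher means stronger binding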
MEASUREMENT NAME: interaction score

Sample answers from the record:
DEIRQLEQENSQLERENQRLEQEIYQLER [P1mSN]: -1.09
DKISQLKEKIQQLKQENQQLEEENSQLEY [P4mSN]: -1.76
DKNEQLKEKISELKEKIEQLKEENQSLEY [P12mSN]: -1.35

P. DKNSQLKEENSQLEEKIEQLKEKIQELKY [P10mSN]
Q. DEIQQLKQKNQELEQEIQELKWEIQELKQ [4H906-bN]
R. DENQSLEQEISQLEQEIQQLEQKNSELKY [P11mSN]
S. DKIEELKEKNSQLKEKNEELKQKIYELKE [P2mSN]
Output the entries ranked by interaction score from maximum down to minimum. Sort and list the labels as requested.
R, S, P, Q
(R: 0.374, S: -0.0295, P: -0.959, Q: -1.42)
